target: CDK4-CYCLIND1 (Homo sapiens, UniProt P11802); assay: Microfluidic LabChip kinase inhibition assay, CDK4-CyclinD1; settings: CDK4 IC50 (μM), Table 2; 200 μM ATP, 1 nM enzyme
Sequence (P11802 whole entry): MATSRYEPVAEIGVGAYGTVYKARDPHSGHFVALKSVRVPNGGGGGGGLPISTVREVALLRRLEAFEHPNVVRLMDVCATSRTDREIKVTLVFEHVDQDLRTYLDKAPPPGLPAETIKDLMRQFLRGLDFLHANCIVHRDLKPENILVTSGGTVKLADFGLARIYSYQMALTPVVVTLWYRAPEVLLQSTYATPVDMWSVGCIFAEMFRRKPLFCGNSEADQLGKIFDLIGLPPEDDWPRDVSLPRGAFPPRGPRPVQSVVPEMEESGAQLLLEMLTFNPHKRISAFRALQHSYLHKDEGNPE
Sequence (P24385 whole entry partner): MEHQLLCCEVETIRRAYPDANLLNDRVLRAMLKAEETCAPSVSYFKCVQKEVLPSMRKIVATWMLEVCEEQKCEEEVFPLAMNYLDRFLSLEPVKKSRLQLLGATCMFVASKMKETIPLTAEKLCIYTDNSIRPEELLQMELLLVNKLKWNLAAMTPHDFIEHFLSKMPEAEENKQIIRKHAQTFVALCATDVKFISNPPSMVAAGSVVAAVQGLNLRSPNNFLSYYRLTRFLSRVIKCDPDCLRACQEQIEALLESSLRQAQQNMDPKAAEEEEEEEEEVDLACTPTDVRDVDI
ENDPOINT: IC50 (µM)
// return numeric value only (unit: µM, not printed)

Asked: Fill blank: measured IC50 of the compound Cc1cc(Nc2ncc3c(n2)N(C2CCCC2)C2(CCNC2=O)C3)ccc1N1CCN(C(C)C)CC1 (centres unmarked) [Compound C63] is ____.
Given back: 0.172

Asked: Fill blank: measured IC50 of the compound CN1CCN(c2ccc(Nc3ncc4c(n3)N(C3CCCC3)CC43CCNC3=O)nc2)CC1 (centres unmarked) [Compound C98] is ____.
Given back: 57.6

Asked: Fill blank: measured IC50 of the compound O=C1NCCC12C(=O)N(C1CCCC1)c1nc(Nc3ccc(N4CCC(N5CCOCC5)CC4)c(F)c3)ncc12 (centres unmarked) [Compound C106] is ____.
Given back: 7.35

Asked: Fill blank: measured IC50 of the compound O=C1NCCC12Cc1cnc(Nc3ccc(N4CCNCC4)cn3)nc1N2C1CCCC1 (centres unmarked) [Compound C33] is ____.
Given back: 0.694

Asked: Fill blank: measured IC50 of the compound CN1CCN(c2ccc(Nc3ncc4c(n3)N(C3CCCC3)C3(CCN(Cc5ccccc5)C3=O)C4)nc2)CC1 (centres unmarked) [Compound C22] is ____.
Given back: 16.5

Asked: Fill blank: measured IC50 of the compound CN1C(=O)CC2(Cc3cnc(Nc4ccc(N5CCNCC5)cc4)nc3N2C2CCCC2)C1=O (centres unmarked) [Compound C68] is ____.
Given back: 2.49

====

target: CDK9-CYCLINT1 (Homo sapiens, UniProt P50750); construct: purchased Carna; assay: Microfluidic LabChip kinase inhibition assay, CDK9-CyclinT1; type: biochemical; conditions: Table 3b; 10 μM ATP; read-out: CDK9 CyclinT1 IC50
Sequence (P50750 whole entry): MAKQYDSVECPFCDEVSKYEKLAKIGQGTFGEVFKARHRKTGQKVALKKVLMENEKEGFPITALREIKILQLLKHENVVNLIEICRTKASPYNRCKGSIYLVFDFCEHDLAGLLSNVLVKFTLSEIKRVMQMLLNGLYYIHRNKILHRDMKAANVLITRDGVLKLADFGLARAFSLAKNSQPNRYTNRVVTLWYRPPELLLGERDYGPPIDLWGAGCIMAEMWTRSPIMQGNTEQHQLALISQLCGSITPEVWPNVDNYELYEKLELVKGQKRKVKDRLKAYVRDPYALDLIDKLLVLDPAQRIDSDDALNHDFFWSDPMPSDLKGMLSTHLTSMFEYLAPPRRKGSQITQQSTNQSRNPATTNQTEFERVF
Sequence (O60563 whole entry partner): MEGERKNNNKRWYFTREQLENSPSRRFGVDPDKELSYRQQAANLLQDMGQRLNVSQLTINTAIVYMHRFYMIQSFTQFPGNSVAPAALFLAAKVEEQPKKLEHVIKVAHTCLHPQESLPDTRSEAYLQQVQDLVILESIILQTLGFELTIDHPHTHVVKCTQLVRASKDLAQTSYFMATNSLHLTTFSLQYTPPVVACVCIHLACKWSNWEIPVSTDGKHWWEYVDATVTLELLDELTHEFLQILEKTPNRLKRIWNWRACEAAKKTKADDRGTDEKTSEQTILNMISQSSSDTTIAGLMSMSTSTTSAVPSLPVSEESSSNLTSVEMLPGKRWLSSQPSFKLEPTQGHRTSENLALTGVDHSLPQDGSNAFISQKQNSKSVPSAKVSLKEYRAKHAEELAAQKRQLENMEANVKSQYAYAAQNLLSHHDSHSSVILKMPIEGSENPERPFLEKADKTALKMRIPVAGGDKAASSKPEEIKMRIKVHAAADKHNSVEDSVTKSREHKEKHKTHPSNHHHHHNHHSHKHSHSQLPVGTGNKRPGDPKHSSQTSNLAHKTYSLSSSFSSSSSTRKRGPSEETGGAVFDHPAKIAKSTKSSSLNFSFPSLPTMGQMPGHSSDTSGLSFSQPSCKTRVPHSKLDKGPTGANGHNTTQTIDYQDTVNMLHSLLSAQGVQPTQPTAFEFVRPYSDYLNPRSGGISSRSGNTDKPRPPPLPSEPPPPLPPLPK
ENDPOINT: IC50

Asked: Fill blank: measured IC50 of the compound CN(C)CCOc1ccc(Nc2ncc3c(n2)N(C2CCCC2)C2(CCNC2=O)C3)nc1 (stereo not shown) is ____.
Given back: > 10 µM

====

molecular target: CDK1/B (Homo sapiens, UniProt P06493); experiment: Additional inhibition assay, CDK1/B; type: biochemical; conditions: Table 3b
Sequence (P06493 whole entry): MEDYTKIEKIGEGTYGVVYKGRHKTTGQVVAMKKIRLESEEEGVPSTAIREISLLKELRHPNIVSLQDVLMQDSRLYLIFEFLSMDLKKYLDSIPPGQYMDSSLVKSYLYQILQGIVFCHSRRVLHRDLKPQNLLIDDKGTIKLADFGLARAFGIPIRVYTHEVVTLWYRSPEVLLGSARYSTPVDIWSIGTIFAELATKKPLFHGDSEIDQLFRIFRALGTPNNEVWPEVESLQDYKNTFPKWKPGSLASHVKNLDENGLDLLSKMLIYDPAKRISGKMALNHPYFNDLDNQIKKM
Sequence (P14635 whole entry partner): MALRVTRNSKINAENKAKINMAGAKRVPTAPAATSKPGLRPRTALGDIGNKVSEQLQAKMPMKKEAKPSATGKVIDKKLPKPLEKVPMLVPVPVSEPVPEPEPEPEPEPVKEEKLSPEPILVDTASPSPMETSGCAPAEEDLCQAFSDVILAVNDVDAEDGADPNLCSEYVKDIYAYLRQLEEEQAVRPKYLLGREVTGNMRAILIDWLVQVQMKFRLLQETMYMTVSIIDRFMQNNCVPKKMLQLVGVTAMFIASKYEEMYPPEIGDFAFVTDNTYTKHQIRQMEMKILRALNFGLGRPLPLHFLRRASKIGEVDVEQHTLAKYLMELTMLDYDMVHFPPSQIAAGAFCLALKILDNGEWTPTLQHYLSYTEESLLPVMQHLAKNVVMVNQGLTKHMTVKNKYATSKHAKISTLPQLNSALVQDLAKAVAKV
ENDPOINT: pIC50
Scale note: pIC50 = -log10(concentration in M).

Asked: Fill blank: measured pIC50 of the compound CN(C)CCOc1ccc(Nc2ncc3c(n2)N(C2CCCC2)C2(CCNC2=O)C3)cc1 (stereo not shown) [Compound C108] is ____.
Given back: 5.20

Asked: Fill blank: measured pIC50 of the compound CC(C)N1CCN(c2ccc(Nc3ncc4c(n3)N(C3CCCC3)C3(CCNC3=O)C4)cc2F)CC1 (stereo not shown) [Compound C118] is ____.
Given back: 5.42

Asked: Fill blank: measured pIC50 of the compound CN(C)[C@@H]1CCN(c2ccc(Nc3ncc4c(n3)N(C3CCCC3)C3(CCNC3=O)C4)cc2F)C1 (stereo partly shown) [Compound C176] is ____.
Given back: 5.12

Asked: Fill blank: measured pIC50 of the compound CN1CCN(c2ccc(Nc3ncc4c(n3)N(C3CCCC3)C3(CC(=O)NC3=O)C4)cc2)CC1 (single isomer, unassigned) [Compound C137] is ____.
Given back: 5.78

Values from patent US20230065740A1
